- test_system: CYP1A2 (Homo sapiens)
- Sequence (P05177 1-516): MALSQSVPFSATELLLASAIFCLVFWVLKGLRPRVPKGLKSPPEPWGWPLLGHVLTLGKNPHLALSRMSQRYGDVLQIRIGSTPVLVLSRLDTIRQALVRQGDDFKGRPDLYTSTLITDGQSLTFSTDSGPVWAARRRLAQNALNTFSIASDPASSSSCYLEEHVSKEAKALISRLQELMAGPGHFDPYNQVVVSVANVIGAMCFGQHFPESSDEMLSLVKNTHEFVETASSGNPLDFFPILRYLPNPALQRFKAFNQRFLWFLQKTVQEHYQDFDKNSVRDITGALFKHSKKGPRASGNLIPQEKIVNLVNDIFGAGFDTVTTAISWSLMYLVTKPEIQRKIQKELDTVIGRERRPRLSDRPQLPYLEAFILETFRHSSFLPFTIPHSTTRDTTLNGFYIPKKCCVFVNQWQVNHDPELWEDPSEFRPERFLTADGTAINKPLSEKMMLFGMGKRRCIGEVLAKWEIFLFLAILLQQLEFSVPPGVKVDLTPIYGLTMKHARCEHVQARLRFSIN
- run_description: CYP450 enzyme inhibition, CYP1A2
- cond: human

>  <molecule>
Cc1ccccc1C(=O)Nc1ccc(NC(=O)c2ccccn2)cc1Cl [Compound 12a]

>  <test_system>
CYP1A2 (Homo sapiens)

>  <IC50>
> 10 µM

$$$$

* * *

pIC50: −log10 of the molar value.
Recorded below: pIC50, system CYP2C9 (Homo sapiens).
measure: pIC50

>  <compound>
O=C(Nc1ccc(NC(=O)c2ccccc2Cl)c(Cl)c1)c1ccccn1 [Compound 10a]

>  <val>
4.93

$$$$
>  <compound>
COc1cc(NC(=O)c2ccccn2)ccc1NC(=O)c1ccccc1Cl

>  <val>
4.84

$$$$
>  <compound>
Cc1ccccc1C(=O)Nc1ccc(NC(=O)c2ccccn2)cc1Cl [Compound 12a]

>  <val>
4.85

$$$$

* * *

- test_system: CYP3A4 (Homo sapiens)
- Sequence (P08684 whole entry): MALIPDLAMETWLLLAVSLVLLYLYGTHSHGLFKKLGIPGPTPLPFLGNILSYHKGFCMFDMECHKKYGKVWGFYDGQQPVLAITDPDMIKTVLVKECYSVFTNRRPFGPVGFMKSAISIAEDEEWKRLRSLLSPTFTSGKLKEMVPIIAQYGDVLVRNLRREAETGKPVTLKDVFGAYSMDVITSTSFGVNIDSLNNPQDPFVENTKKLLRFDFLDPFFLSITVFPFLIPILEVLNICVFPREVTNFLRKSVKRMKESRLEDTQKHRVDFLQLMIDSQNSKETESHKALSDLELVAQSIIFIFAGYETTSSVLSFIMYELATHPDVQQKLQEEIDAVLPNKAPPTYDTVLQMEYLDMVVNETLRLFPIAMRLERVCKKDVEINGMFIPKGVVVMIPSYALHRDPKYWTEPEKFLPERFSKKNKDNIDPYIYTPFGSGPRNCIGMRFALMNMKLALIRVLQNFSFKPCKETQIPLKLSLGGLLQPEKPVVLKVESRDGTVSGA
pIC50: −log10 of the molar value.
The compounds listed here are annotated with their pIC50.
measure: pIC50

>  <compound>
Cc1ccccc1C(=O)Nc1ccc(NC(=O)c2ccccn2)cc1Cl [Compound 12a]

>  <measure>
pIC50

>  <val>
< 4.52

$$$$
>  <compound>
O=C(Nc1ccc(NC(=O)c2ccccc2Cl)c(Cl)c1)c1ccccn1 [Compound 10a]

>  <measure>
pIC50

>  <val>
< 4.52

$$$$
>  <compound>
COc1cc(NC(=O)c2ccccn2)ccc1NC(=O)c1ccccc1Cl [Compound 9g]

>  <measure>
pIC50

>  <val>
< 4.52

$$$$

* * *

Read-out record for UniProtKB P10635: IC50
Sequence (P10635 whole entry): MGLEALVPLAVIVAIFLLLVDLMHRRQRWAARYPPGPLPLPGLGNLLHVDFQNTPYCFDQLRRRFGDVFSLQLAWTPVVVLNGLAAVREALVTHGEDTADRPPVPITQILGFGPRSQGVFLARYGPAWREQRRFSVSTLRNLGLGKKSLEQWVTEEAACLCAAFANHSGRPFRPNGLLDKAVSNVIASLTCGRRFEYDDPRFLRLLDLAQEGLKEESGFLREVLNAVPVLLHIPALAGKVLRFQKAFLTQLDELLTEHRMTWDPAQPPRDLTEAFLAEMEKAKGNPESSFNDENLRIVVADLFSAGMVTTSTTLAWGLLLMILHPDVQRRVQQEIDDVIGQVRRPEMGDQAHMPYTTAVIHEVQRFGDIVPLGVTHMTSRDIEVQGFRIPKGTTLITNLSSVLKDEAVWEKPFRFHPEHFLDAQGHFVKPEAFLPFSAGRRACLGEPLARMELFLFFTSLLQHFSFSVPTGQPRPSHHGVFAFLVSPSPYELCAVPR

>  <compound>
COc1cc(NC(=O)c2ccccn2)ccc1NC(=O)c1ccccc1Cl

>  <IC50>
12.8 µM

$$$$
>  <compound>
O=C(Nc1ccc(NC(=O)c2ccccc2Cl)c(Cl)c1)c1ccccn1 [Compound 10a]

>  <IC50>
13.1 µM

$$$$
>  <compound>
Cc1ccccc1C(=O)Nc1ccc(NC(=O)c2ccccn2)cc1Cl [Compound 12a]

>  <IC50>
12 µM

$$$$

* * *

Catalogue of IC50 values
- test_system: UniProtKB P05177
- run_description: CYP450 enzyme inhibition, CYP1A2

>  <compound>
O=C(Nc1ccc(NC(=O)c2ccccc2Cl)c(Cl)c1)c1ccccn1 [Compound 10a]

>  <test_system>
UniProtKB P05177

>  <IC50>
> 30 µM

$$$$
>  <compound>
Cc1ccccc1C(=O)Nc1ccc(NC(=O)c2ccccn2)cc1Cl [Compound 12a]

>  <test_system>
UniProtKB P05177

>  <IC50>
> 30 µM

$$$$
>  <compound>
COc1cc(NC(=O)c2ccccn2)ccc1NC(=O)c1ccccc1Cl [Compound 9g]

>  <test_system>
UniProtKB P05177

>  <IC50>
> 30 µM

$$$$
